From: paper PMC5980705

assay: Pharmacokinetic studies of crizotinib and dasatinib in patients; type: in vivo, human; details: human, in vivo

compound | result.unit | half-life
Cc1nc(Nc2ncc(C(=O)Nc3c(C)cccc3Cl)s2)cc(N2CCN(CCO)CC2)n1 [Dasatinib] | h | 4.4

---

experiment: Pharmacokinetic studies of crizotinib and dasatinib in patients; assay type: in vivo, human; details: human, in vivo, 50 mg/m2

sample.smiles | Cmax / ng/mL
Cc1nc(Nc2ncc(C(=O)Nc3c(C)cccc3Cl)s2)cc(N2CCN(CCO)CC2)n1 | 120

---

assay: Pharmacokinetic studies of crizotinib and dasatinib in patients; assay type: in vivo, human; settings: human, in vivo, elimination half-life, crizotinib day 14 of therapy, 19 patients, median; range 8.0 to 36.5

sample.smiles | half-life / h
C[C@@H](Oc1cc(-c2cnn(C3CCNCC3)c2)cnc1N)c1c(Cl)ccc(F)c1Cl | 12.8
